Test system: Calf thymus DNA
Test Settings: Bos taurus
Description: Binding affinity towards calf thymus DNA
Endpoint Label: K app
Answers are plain numbers.

Below, each entry is followed by its recorded K app result.
Exam item: Param item = CN(C)CCNc1ccc2c(=O)[nH]c(=O)n3c4ccccc4c(=O)c1c23 ; retrieve measured K app.
Marked response: 2.8e-07

Exam item: Param item = CN(C)CCn1c(=O)c2ccc(NCCNCCO)c3c(=O)c4cc(O)ccc4n(c1=O)c23 ; retrieve measured K app.
Marked response: 3.1e-08

Exam item: Param item = CN(C)CCn1c(=O)c2ccc(NCCN)c3c(=O)c4ccccc4n(c1=O)c23 ; retrieve measured K app.
Marked response: 2.4e-07

Exam item: Param item = CCN(CC)CCNc1ccc2c(=O)n(CCN(C)C)c(=O)n3c4ccccc4c(=O)c1c23 ; retrieve measured K app.
Marked response: 1.7e-07

Exam item: Param item = CN(C)CCN(C)c1ccc2c(=O)n(CCN(C)C)c(=O)n3c4ccccc4c(=O)c1c23 ; retrieve measured K app.
Marked response: 3.7e-08

Field: K app. Fill in for each record below.
1. CN(C)CCn1c(=O)c2ccc(Cl)c3c(=O)c4ccccc4n(c1=O)c23
2. CN(C)CCn1c(=O)c2ccc(NCCN3CCNCC3)c3c(=O)c4ccccc4n(c1=O)c23
3. CN(C)CCNc1ccc2c(=O)n(CCN(C)C)c(=O)n3c4cc(O)c(O)cc4c(=O)c1c23

Marked response:
1. 4.3e-09
2. 5.2e-08
3. 1.6e-07

====

Test Method Notes: physchem
Test Settings: octanol/water
Description: Partition coefficient (logP)
Endpoint Label: logP
Numbers only.

Below, each entry is followed by its recorded logP result.
Exam item: Param item = COc1cc2c(=O)c3c(NCCN(C)C)ccc4c(=O)n(CCN(C)C)c(=O)n(c2cc1OC)c43 ; retrieve measured logP.
Marked response: 1.39

Exam item: Param item = CN(C)CCNc1ccc2c(=O)[nH]c(=O)n3c4ccccc4c(=O)c1c23 ; retrieve measured logP.
Marked response: 2.02

Exam item: Param item = CN(C)CCn1c(=O)c2ccc(NCCN3CCNCC3)c3c(=O)c4ccccc4n(c1=O)c23 ; retrieve measured logP.
Marked response: 1.7

Exam item: Param item = CN(C)CCNc1ccc2c(=O)n(CCN(C)C)c(=O)n3c4cc(O)c(O)cc4c(=O)c1c23 ; retrieve measured logP.
Marked response: 1.29

Exam item: Param item = CN(C)CCNc1ccc2c(=O)n(CCN(C)C)c(=O)n3c4ccc(N)cc4c(=O)c1c23.Cl.Cl.Cl ; retrieve measured logP.
Marked response: 0.67

Field: logP. Fill in for each record below.
1. CN(C)CCn1c(=O)c2ccc(NCCNCCO)c3c(=O)c4cc(O)ccc4n(c1=O)c23
2. COc1ccc2c(c1)c(=O)c1c(NCCN(C)C)ccc3c(=O)n(CCN(C)C)c(=O)n2c31
3. CN(C)CCN(C)c1ccc2c(=O)n(CCN(C)C)c(=O)n3c4ccccc4c(=O)c1c23

Marked response:
[0.47, 1.28, 1.12]

Field: logP. Fill in for each record below.
1. CCN(CC)CCNc1ccc2c(=O)n(CCN(C)C)c(=O)n3c4ccccc4c(=O)c1c23
2. CN(C)CCCNc1ccc2c(=O)n(CCN(C)C)c(=O)n3c4ccccc4c(=O)c1c23

Marked response:
1. 3
2. 2.27

====

The next entries give measured K app for Nucleic Acid.
Numbers only.

Below, each entry is followed by its recorded K app result.
Exam item: Param item = CN(C)CCCNc1ccc2c(=O)n(CCN(C)C)c(=O)n3c4ccccc4c(=O)c1c23 ; retrieve measured K app.
Marked response: 1.7e-07

Exam item: Param item = CN(C)CCNc1ccc2c(=O)n(CCN(C)C)c(=O)n3c4cc(O)c(O)cc4c(=O)c1c23 ; retrieve measured K app.
Marked response: 2.9e-07

More entries:
Exam item: Param item = COc1ccc2c(c1)c(=O)c1c(NCCN(C)C)ccc3c(=O)n(CCN(C)C)c(=O)n2c31 ; retrieve measured K app.
Marked response: 3.3e-07
